These entries and their values trace back to patent EP4813991A1.

test system: KATO-III cells; experiment: Gastric cancer cell proliferation inhibitory activity (CellTiter Glo), KATO-III; type: cell-based; details: 72 hours, relative IC50
pIC50: −log10 of the molar value.
measurement.name: pIC50

The compound listed as N.N.[Cl][Pt][Cl] [Cisplatin, reference compound] shows pIC50 equal to < 6.00

---

target: CDK13 (Homo sapiens, UniProt Q14004); test: CDK13 kinase inhibitory activity assay (33P-ATP filter binding); assay type: biochemical
Sequence (Q14004 whole entry, species assumed): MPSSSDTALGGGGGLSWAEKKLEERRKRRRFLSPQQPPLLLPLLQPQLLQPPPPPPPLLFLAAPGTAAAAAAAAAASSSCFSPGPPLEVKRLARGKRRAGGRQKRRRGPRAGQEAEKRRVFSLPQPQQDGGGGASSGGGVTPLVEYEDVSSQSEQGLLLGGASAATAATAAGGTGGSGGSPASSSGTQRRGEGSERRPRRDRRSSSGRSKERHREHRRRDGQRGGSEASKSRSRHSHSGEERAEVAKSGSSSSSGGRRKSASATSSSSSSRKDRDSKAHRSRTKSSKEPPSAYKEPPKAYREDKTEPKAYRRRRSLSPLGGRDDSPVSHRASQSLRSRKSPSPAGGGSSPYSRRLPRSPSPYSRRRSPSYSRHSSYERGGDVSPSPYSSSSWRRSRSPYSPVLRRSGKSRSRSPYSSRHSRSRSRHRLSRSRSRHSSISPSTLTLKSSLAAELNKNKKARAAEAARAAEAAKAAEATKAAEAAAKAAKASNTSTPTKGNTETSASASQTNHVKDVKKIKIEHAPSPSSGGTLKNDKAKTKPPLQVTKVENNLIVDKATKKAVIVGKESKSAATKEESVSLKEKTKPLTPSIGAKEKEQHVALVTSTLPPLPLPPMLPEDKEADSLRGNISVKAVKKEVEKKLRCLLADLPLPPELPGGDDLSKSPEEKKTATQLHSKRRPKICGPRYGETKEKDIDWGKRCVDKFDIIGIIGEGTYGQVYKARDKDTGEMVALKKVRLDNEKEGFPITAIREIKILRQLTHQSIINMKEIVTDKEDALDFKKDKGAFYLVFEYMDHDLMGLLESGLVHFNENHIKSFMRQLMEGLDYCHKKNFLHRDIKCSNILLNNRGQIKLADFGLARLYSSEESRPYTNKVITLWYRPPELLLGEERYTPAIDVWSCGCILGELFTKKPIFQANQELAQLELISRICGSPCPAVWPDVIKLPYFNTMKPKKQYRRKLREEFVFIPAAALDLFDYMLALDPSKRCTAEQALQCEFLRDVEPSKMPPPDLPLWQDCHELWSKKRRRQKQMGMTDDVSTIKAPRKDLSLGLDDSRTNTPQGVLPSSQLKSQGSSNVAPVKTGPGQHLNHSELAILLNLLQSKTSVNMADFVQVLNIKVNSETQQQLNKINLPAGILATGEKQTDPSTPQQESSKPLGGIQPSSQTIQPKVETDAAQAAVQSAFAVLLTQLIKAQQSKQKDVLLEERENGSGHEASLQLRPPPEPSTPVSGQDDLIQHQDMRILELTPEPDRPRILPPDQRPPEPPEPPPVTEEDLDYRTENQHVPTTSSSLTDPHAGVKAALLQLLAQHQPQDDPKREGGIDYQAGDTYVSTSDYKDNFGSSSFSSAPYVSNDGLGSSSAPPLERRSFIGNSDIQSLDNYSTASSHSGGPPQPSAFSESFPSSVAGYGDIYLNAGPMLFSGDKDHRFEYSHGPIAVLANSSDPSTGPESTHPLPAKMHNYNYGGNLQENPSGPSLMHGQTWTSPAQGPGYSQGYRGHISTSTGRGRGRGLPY
Sequence (O75909 whole entry partner, species assumed): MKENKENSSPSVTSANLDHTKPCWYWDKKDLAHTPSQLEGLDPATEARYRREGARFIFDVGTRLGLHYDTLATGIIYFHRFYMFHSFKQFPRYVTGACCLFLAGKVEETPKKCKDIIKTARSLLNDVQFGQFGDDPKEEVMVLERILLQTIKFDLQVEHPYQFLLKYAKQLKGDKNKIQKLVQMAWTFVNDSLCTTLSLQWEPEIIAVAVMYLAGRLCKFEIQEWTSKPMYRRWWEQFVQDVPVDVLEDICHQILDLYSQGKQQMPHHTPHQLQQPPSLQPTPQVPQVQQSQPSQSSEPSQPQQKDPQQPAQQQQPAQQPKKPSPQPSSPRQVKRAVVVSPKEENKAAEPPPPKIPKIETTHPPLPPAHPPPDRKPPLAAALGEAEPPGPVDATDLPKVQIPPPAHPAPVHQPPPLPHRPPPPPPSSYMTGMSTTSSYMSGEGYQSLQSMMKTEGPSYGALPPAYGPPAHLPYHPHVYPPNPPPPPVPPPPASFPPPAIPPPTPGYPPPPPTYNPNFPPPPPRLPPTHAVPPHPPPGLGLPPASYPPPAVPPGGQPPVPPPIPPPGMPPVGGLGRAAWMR
measurement.name: IC50

The molecule listed as CN1CCN(c2cc(NCc3nc4ccc(F)c(F)c4[nH]3)c3ncc(C(F)(F)F)n3n2)CC1 [Example 8] shows IC50 equal to < 100 nM

The molecule listed as N#CC1(O)CN(c2cc(NCc3nc4cc(Cl)c(Cl)cc4[nH]3)c3ncc(C(F)(F)F)n3n2)C1 [Example 59] shows IC50 equal to 100 to 500 nM

The molecule listed as CC(C)c1cnc2c(NCc3nc4ccc(F)c(F)c4[nH]3)cc(N3CCOCC3)nn12 [Example 3] shows IC50 equal to 100 to 500 nM

The molecule listed as FC(F)(F)c1cnc2c(NCc3cc4cccnc4[nH]3)cc(N3CCOCC3)nn12 [Example 84] shows IC50 equal to < 100 nM

---

tested on: MDA-MB-231 breast cancer cells; assay: Proliferation inhibitory activity assay against MDA-MB-231 breast cancer cells; assay type: cell-based; conditions: Homo sapiens, 72 hours, CellTiter Glo, relative IC50
pIC50: −log10 of the molar value.
For each entry below, report its pIC50 value.

The molecule listed as CC1(O)CN(c2cc(NCc3nc4cc(Cl)c(Cl)cc4[nH]3)c3ncc(C(F)(F)F)n3n2)C1 shows pIC50 equal to ≥ 7.30

The molecule listed as OC1CCN(c2cc(NCc3nc4ccc(F)c(F)c4[nH]3)c3ncc(C(F)(F)F)n3n2)CC1 shows pIC50 equal to ≥ 7.30

The molecule listed as CN1C2CC1CN(c1cc(NCc3nc4cc(Cl)c(Cl)cc4[nH]3)c3ncc(C(F)(F)F)n3n1)C2 shows pIC50 equal to ≥ 7.30

The molecule listed as Fc1ccc2nc(CNc3cc(N4CCNCC4)nn4c(C(F)(F)F)cnc34)[nH]c2c1F shows pIC50 equal to ≥ 7.30

The molecule listed as FC(F)(F)c1cnc2c(NCc3nc4cc(Cl)c(Cl)cc4o3)cc(N3CCOCC3)nn12 shows pIC50 equal to 6.30 to 7.30

The molecule listed as Cc1ccnc2[nH]c(CNc3cc(N4CCOCC4)nn4c(C(F)(F)F)cnc34)nc12 shows pIC50 equal to 6.30 to 7.30

The molecule listed as NC(=O)C1CN(c2cc(NCc3nc4cc(Cl)c(Cl)cc4[nH]3)c3ncc(C(F)(F)F)n3n2)C1 shows pIC50 equal to 6.30 to 7.30

The molecule listed as NC(=O)N1CCN(c2cc(NCc3nc4cc(Cl)c(Cl)cc4[nH]3)c3ncc(C(F)(F)F)n3n2)CC1 shows pIC50 equal to 6.30 to 7.30

The molecule listed as Fc1cc2nc(CNc3cc(N4CCOCC4)nn4c(C(F)(F)F)cnc34)[nH]c2cc1F shows pIC50 equal to ≥ 7.30

The molecule listed as O=C(CO)C1CCN(c2cc(NCc3nc4cc(Cl)c(Cl)cc4[nH]3)c3ncc(C(F)(F)F)n3n2)CC1 shows pIC50 equal to ≥ 7.30

The molecule listed as Fc1ccc2nc(CNc3cc(N4CCOCC4)nn4c(Cl)cnc34)[nH]c2c1F shows pIC50 equal to < 6.30

The molecule listed as O=C(CO)N1CCN(c2cc(NCc3nc4cc(Cl)c(Cl)cc4[nH]3)c3ncc(C(F)(F)F)n3n2)CC1 shows pIC50 equal to ≥ 7.30

The molecule listed as FC(F)(F)c1cnc2c(NCc3nc4cc(Cl)c(Cl)cc4s3)cc(N3CCOCC3)nn12 shows pIC50 equal to 6.30 to 7.30

The molecule listed as FC(F)(F)c1cnc2c(NCc3nc4cc(Cl)c(Cl)cc4[nH]3)cc(N3CC4CC(C3)O4)nn12 shows pIC50 equal to ≥ 7.30

The molecule listed as Nc1ncc(-c2cc(NCc3nc4ccc(F)c(F)c4[nH]3)c3ncc(C(F)(F)F)n3n2)cn1 shows pIC50 equal to ≥ 7.30

The molecule listed as COc1cc2nc(CNc3cc(N4CCOCC4)nn4c(C(F)(F)F)cnc34)[nH]c2cc1Cl shows pIC50 equal to ≥ 7.30
